# SUBJECT_OF_TEST: human 5-HT2a receptors (Homo sapiens)
# Sequence (P28223 whole entry): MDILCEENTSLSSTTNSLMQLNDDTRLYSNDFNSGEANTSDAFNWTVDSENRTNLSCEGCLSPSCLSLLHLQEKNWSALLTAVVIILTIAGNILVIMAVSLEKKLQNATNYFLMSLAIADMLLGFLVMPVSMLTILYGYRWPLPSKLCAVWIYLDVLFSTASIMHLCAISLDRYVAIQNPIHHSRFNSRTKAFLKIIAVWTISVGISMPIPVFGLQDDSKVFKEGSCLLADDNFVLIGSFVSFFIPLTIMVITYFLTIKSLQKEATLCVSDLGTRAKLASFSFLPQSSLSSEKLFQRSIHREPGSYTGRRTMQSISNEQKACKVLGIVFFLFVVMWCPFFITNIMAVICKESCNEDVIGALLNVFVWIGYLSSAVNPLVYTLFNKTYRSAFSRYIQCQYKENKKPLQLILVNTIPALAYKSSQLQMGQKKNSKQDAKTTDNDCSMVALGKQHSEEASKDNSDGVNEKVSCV
# ASSAY_INFO: Competition radioligand binding, h5-HT2a ([3H]Ketanserin)
Field: label. Allowed values: TRUE (Ki < 40 nM) or FALSE (Ki >= 40 nM).

Sample answers from the record:
COMPOUND	SUBJECT_OF_TEST	CATEGORY
Cc1cc(CN(CC[C@@H]2CCCN2C)Cc2ccc(Cl)cc2)oc1C	human 5-HT2a receptors (Homo sapiens)	FALSE
CN1CCC[C@H]1CCN(Cc1ccc(Cl)cc1)Cc1ccc(O)cc1Cl	human 5-HT2a receptors (Homo sapiens)	FALSE
Cc1ccc(C)c(CN(CCC2CCCN2C)Cc2ccccc2)c1 (stereo not drawn)	human 5-HT2a receptors (Homo sapiens)	TRUE

I wonder whether Cc1ccc(CN(CC[C@H]2CCCN2C)Cc2ccc(C)cc2)cc1 has Ki below 40 nM. Can you tell?
TRUE

I wonder whether Cc1ccc(CN(CC[C@@H]2CCCN2C)Cc2ccc(C)cc2)cc1 has Ki below 40 nM. Can you tell?
TRUE
